Just for reference, the Deep4Chem optical property database is where these values come from.

testSummary: solvent given as SMILES
settings: in CC(C)=O
Criterion: emission maximum strictly under 600 nm. Met: rule met. Not met: rule not met.

| compound | label |
| --- | --- |
| CCN(CC)c1ccc(/C=C/C2=[O+][B-](F)(F)Oc3c2c(=O)oc2cc(N(CC)CC)ccc32)cc1 | rule not met |
| CCCCC1=Cc2c3ccc4cccc5ccc(c6cc(-c7ccc(N(c8ccccc8)c8ccccc8)cc7)n(c26)P1(=O)c1ccccc1)c3c45 (stereo not drawn) | rule met |
| CCC1=C(C)C2=Cc3cc(I)cn3[B-](F)(F)[N+]2=C1C | rule met |
| O=C1CCCC2=C1CC1=C(CCCC1=O)N2NC(=O)c1ccc(O)cc1 | rule met |
| Oc1ccccc1/C=N/c1ccc(Cn2cncn2)cc1 | rule met |
| CN(C)c1ccc(/C=C/C=C2\CC/C(=C\c3ccc(N(C)C)cc3)C2=O)cc1 | rule not met |
| CCCCC[n+]1ccc(/C=C/c2ccc(N(C)C)c3ccccc23)c2ccccc21 | rule not met |
| CN(C)c1ccc(-c2cc3c(ccc4c([N+](=O)[O-])cccc43)c(=O)o2)cc1 | rule met |
| CC(=O)Nc1ccc2c3c(cccc13)C(=O)c1ccccc1-2 | rule met |
| CN(C)c1ccc(/C=C/c2nc3ccc(N(C)C)cc3oc2=O)cc1 | rule not met |
| COc1ccc(-c2cc(-c3ccc(C)cc3)nc3c(C#N)c(N4CCCC4)nc(N)c23)cc1 | rule met |
| COc1cc(OC)c(C2=C3C(C)=CC(C)=[N+]3[B-](F)(F)n3c(C)cc(C)c32)c(OC)c1 | rule met |
| COc1ccc(/C=C/C2=CC(/C=C/c3ccc(OC)cc3)=[O+][B-](OC(C)=O)(OC(C)=O)O2)cc1 | rule met |
| CN(C)c1ccc(/C=C2\OC(=O)c3cc(N)ccc32)cc1 | rule met |
| COc1ccc(/C=C/C2=[O+][B-](F)(F)OC(/C=C/c3ccc(OC)c4ccccc34)=C2c2ccccc2)c2ccccc12 | rule not met |
| COc1ccc(C2=CC(c3cc(OC)cc(OC)c3)=[O+][B-](F)(F)O2)cc1 | rule met |
| N#CC(C#N)=C(c1ccc(N(c2ccccc2)c2ccccc2)cc1)c1ccc(N(c2ccccc2)c2ccccc2)cc1 | rule met |
| CCOC(=O)/C(C#N)=C\c1ccc2c(c1)c1ccccc1n2-c1ccc(C)cc1 | rule met |
| CN(C)c1ccc(/C=C/C(=O)c2ccc(Cl)cc2)cc1 | rule met |
| CC(C)(C)c1ccc2c(c1)c1cc(C(C)(C)C)ccc1n2-c1cccc2c1Oc1c(-c3nc(-c4ccccc4)nc(-c4ccccc4)n3)cccc1C2(C)C | rule met |

* * *

testSummary: solvent given as SMILES
settings: in CO
Each entry gets Criterion not met if its emission maximum stays under 400 nm, and Criterion met if its emission maximum is 400 nm or above.

| molecule | label |
| --- | --- |
| C/C(=C\c1ccc(C)cc1)c1nc2ccccc2o1 | Criterion not met |
| CCn1c(=O)nc2n(C)c3cc(C)ccc3nc-2c1=O | Criterion met |
| COc1ccc(-c2cc(-c3ccc(C)cc3)nc3c(C#N)c(N4CCCC4)nc(N)c23)cc1 | Criterion met |
| C#CCOc1ccc(/C=C/C2=[N+]3C(=C(c4ccccc4)c4c(C)cc(C)n4[B-]3(F)F)C(C)=C2)cc1 | Criterion met |
| COc1ccc2cc(-c3ccc(C(F)(F)F)cc3)oc(=O)c2c1 | Criterion met |
| CC1=[N+]2C(=C(c3c4ccccc4cc4ccccc34)c3ccc(C)n3[B-]2(F)F)C=C1 | Criterion met |
| O=C1C2=C(O[B-](F)(F)[n+]3c2ccc2ccccc23)c2ccc(N3CCOCC3)c3cccc1c23 | Criterion met |
| C(=C\c1c[nH]cn1)/c1cc[n+]2ccc(/C=C/c3c[nH]cn3)cc2c1 | Criterion met |
| NCCc1c[nH]c2ccc(O)cc12 | Criterion not met |
| CC(=O)n1cc(/C=C/c2ccc([N+](=O)[O-])cc2)c2ccccc21 | Criterion met |
| C[Si]1(C)C2=C(c3ccc(N(c4ccccc4)c4ccccc4)cc31)P(=O)(c1ccccc1)c1ccccc12 (stereo not given) | Criterion met |
| CCCCNC(=O)c1nc2c(N(C)C)nc(N(C)C)nc2n1Cc1ccccc1 | Criterion met |
| O=[N+]([O-])c1ccc(/C=C/c2cn(S(=O)(=O)c3ccccc3)c3ccccc23)cc1 | Criterion met |

* * *

# emission maximum per record follows
testSummary: solvent given as SMILES
settings: in ClCCl
parameterMeasured: emission maximum

| compound | testValue |
| --- | --- |
| CCN1/C(=C\c2c(-c3ccc(N(C)C)cc3)c(=O)c2=O)C=Cc2ccccc21 | 588 nm |
| CCCCCCCCOc1ccc(C2=C3C(C)=C(C#Cc4ccc(B(c5c(C)cc(C)cc5C)c5c(C)cc(C)cc5C)cc4)C(C)=[N+]3[B-](F)(F)n3c(C)c(C#Cc4ccc(B(c5c(C)cc(C)cc5C)c5c(C)cc(C)cc5C)cc4)c(C)c32)cc1 | 602 nm |
| CN(C)c1ccc(/C=C/c2cc[n+](C)cc2)cc1 | 608 nm |
| COC(=O)c1nc2cnc(N)nc2n1Cc1ccccc1 | 379 nm |
| COc1ccccc1C1=[N+]2C(=C(c3ccccc3)c3c4c(c(-c5ccccc5OC)n3[B-]2(F)F)C2CCC4CC2)C2=C1C1CCC2CC1 | 583 nm |
| CC(C)(C)c1ccc2c(c1)c1cc(C(C)(C)C)ccc1n2-c1ccc(-c2ccc3c(c2)C2(c4cc(-c5ccc(-n6c7ccc(C(C)(C)C)cc7c7cc(C(C)(C)C)ccc76)cc5)ccc4-3)c3ccccc3S(=O)(=O)c3ccccc32)cc1 | 449 nm |
| Nc1ccc(-c2ccc3c(c2)C(=O)c2ccccc2C3=O)cc1 | 695 nm |
| F[B-]1(F)N(c2ccccc2)c2cccc3ccc4ccc[n+]1c4c23 | 584 nm |
| CC1=C(c2cccs2)C(C)=[N+]2C1=C(c1ccccc1)c1c(C)c(-c3cccs3)c(C)n1[B-]2(F)F | 609 nm |
| CC1(C)Nc2cc(Cl)ccc2-c2[nH]c3ccccc3c(=O)c21 | 473 nm |
| COc1ccc(/C=C/C(=O)c2c(O)cc(C)oc2=O)cc1 | 487 nm |
| CCCCN1C(=O)c2cc(Oc3ccc(C(C)(C)C)cc3)c3c4c(Oc5ccc(C(C)(C)C)cc5)cc5c6c(cc(Oc7ccc(C(C)(C)C)cc7)c(c7c(Oc8ccc(C(C)(C)C)cc8)cc(c2c37)C1=O)c64)C(=O)N(CCCC)C5=O | 607 nm |
| CCCn1c(=O)c(/C=C/c2nc3ccc(C)cc3n(CCC)c2=O)nc2ccc(C)cc21 | 490 nm |
| C(=C\c1ccc(-c2cccc3ccccc23)s1)/c1cccs1 | 453 nm |
| C[Si](C)(C)c1ccc(-c2nc3ccccc3n2-c2ccccc2)cc1 | 358 nm |
| C(=C\c1ccc(-c2ccccc2)cc1)/c1ccc(Oc2ccc3ccccc3c2-c2c(Oc3ccc(/C=C/c4ccc(-c5ccccc5)cc4)cc3)ccc3ccccc23)cc1 | 385 nm |
| COc1cc(/C=C/c2nc3ccccc3o2)c(OC)cc1/C=C/c1nc(C)nc(C)n1 | 492 nm |
| COc1ccc2cc(C3=[N+]4C(=Nc5c(-c6ccccc6)cc(-c6ccc7cc(OC)ccc7c6)n5[B-]4(F)F)C(c4ccccc4)=C3Br)ccc2c1 | 728 nm |
| O=C1c2ccccc2C2=Cc3ccc4ccccc4[n+]3[B-](F)(F)N12 | 464 nm |
| O=P1(c2ccccc2)C(c2cc(C(F)(F)F)cc(C(F)(F)F)c2)=Cc2c3ccc4cccc5ccc(c6cc(-c7ccc(N(c8ccccc8)c8ccccc8)cc7)n1c26)c3c45 (stereo unspecified) | 622 nm |
| COc1ccc(-c2c3ccccc3c(-c3ccc(OC)cc3)c3cc4ccccc4cc23)cc1 | 511 nm |
| Cn1nc(-c2ccc(C(F)(F)F)cc2)cc1-c1ccccc1 | 341 nm |
| COc1ccc(-c2c3ccccc3c3n2[B-](F)(F)[N+]2=Cc4c5ccccc5c(-c5ccc(OC)cc5)n4[B-](F)(F)[N+]2=C3)cc1 | 614 nm |
| C=CCOc1nnc(OCCC(F)(F)C(F)(F)C(F)(F)C(F)(F)C(F)(F)C(F)(F)C(F)(F)C(F)(F)F)nn1 | 572 nm |
| CCOC(=O)c1c(-c2c(Cl)c3cc(C)ccc3oc2=O)nn(-c2cccc(C)c2)c1C(=O)OCC | 418 nm |
| O=[N+]([O-])c1ccc(-c2cn3ccc[n+]3[n-]2)cc1 | 556 nm |

* * *

# emission maximum per record follows
testSummary: solvent given as SMILES
settings: in CC#N
parameterMeasured: emission maximum (nm)

| compound | testValue |
| --- | --- |
| Cc1cc(C)c(C2=C3C=C(c4ccc(C(C)(C)C)cc4)C(c4ccc(C(C)(C)C)cc4)=[N+]3[B-](F)(F)n3c2cc(-c2ccc(C(C)(C)C)cc2)c3-c2ccc(C(C)(C)C)cc2)c(C)c1 | 643 |
| FC(F)(F)c1ccc(-c2pc3ccccc3s2)cc1 (configuration not stated) | 430 |
| CCOC(=O)CN1C(=O)C2=C(c3ccc(C#N)cc3)N(CC(=O)OCC)C(=O)C2=C1c1ccccc1 | 538 |
| COc1cc(-c2nc(-c3ccccc3)c3ccccn23)ccc1O | 489 |
| CN(C)c1ccc(-c2nc3nccnc3n2-c2ccccc2)cc1 | 477 |
| CCCCCCCCCCCCNc1cccc2[n+]1[B-](F)(F)n1c(c3cccc4cccc1c43)=N2 | 519 |
| CCC1=C(C)C2=C(C)c3c(C)c(CC)c(C)n3[B-](F)(F)[N+]2=C1C | 530.4 |
| Cc1ccc(-c2ccc(/C=C/c3ccc([N+](=O)[O-])cc3)cn2)nc1 | 551 |
| CCCn1c(=O)c(/C=C/c2nc3ccc(C)cc3n(CCC)c2=O)nc2ccc(C)cc21 | 502 |
| CCC1=C(C)C2=C(c3c4ccccc4cc4ccccc34)c3c(C)c(CC)c(C)n3[B-](F)(F)[N+]2=C1C | 537 |
| Cc1cc2nc3c(=O)[nH]c(=O)nc-3n(C)c2cc1C | 533 |
| C[Si]1(C)C2=C(c3ccc(N(c4ccccc4)c4ccccc4)cc31)P(=O)(c1ccccc1)c1ccccc12 (configuration not stated) | 611 |
